Molecular target: UniProt:Q16690
Assay: DUSP5 phosphatase domain pNPP assay, IC50 from initial velocities
Assay type: biochemical
Conditions: IC50 against DUSP5 PD activity, without DTT, 30 min incubation, mean ± SD
pIC50: −log10 of the molar value.
The entries below are paired with their reported pIC50.

RECORD_SMILES | VALUE_RELATION_SIGN | pIC50
O=C1OC2(c3ccccc31)c1cc(Br)c(O)c(Br)c1Oc1c2cc(Br)c(O)c1Br | = | 4.20
O=C1OC2(c3ccc(O)cc3Oc3cc(O)ccc32)c2ccccc21 | < | 3.52

###

Target: DUSP5 PD (Homo sapiens)
Sequence (Q16690 178-319 limits assumed): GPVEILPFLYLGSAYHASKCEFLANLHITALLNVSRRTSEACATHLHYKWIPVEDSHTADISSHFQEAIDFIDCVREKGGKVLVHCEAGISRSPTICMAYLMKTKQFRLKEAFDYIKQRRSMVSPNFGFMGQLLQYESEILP
Assay: Reaction progress curve analysis of irreversible DUSP5 PD inactivation
Assay type: biochemical
Settings: without DTT
READOUT_KIND: Inhibitor mechanism (irreversible inactivation)

RECORD_SMILES | ASSAY_SYSTEM | RESULT_VALUE
O=C1OC2(c3cc(Cl)c(O)cc3Oc3cc(O)c(Cl)cc32)c2ccccc21 | DUSP5 PD (Homo sapiens) | single-step
O=C([O-])c1ccccc1-c1c2cc(Br)c(=O)cc-2oc2[c]([Hg+])c([O-])c(Br)cc12.[Na+].[Na+].[OH-] | DUSP5 PD (Homo sapiens) | two-step
O=C1OC2(c3cc(Br)c(O)cc3Oc3cc(O)c(Br)cc32)c2ccccc21 | DUSP5 PD (Homo sapiens) | single-step
O=C1OC2(c3ccccc31)c1cc(I)c(O)c(I)c1Oc1c2cc(I)c(O)c1I | DUSP5 PD (Homo sapiens) | single-step
O=C1OC2(c3ccccc31)c1cc(Br)c(O)c(Br)c1Oc1c2cc(Br)c(O)c1Br | DUSP5 PD (Homo sapiens) | two-step

###

Target: UniProt:Q16690
Test: Spectral analysis of other xanthene dyes binding to DUSP5 PD protein
Details: 4 μM compound, 4 μM protein, without DTT
READOUT_KIND: spectral shift upon addition of DUSP5 PD protein

RECORD_SMILES | ASSAY_SYSTEM | RESULT_VALUE
O=C1OC2(c3ccc(O)cc3Oc3cc(O)ccc32)c2ccccc21 | UniProt:Q16690 | no spectral differences
O=C1OC2(c3ccccc31)c1cc(Br)c(O)c(Br)c1Oc1c2cc(Br)c(O)c1Br | UniProt:Q16690 | spectrally shifted
O=C1OC2(c3cc(Cl)c(O)cc3Oc3cc(O)c(Cl)cc32)c2ccccc21 | UniProt:Q16690 | no spectral differences
O=C1OC2(c3ccccc31)c1cc(I)c(O)c(I)c1Oc1c2cc(I)c(O)c1I | UniProt:Q16690 | spectrally shifted

###

Biological target: DUSP5 PD (Homo sapiens, UniProt Q16690)
Test: DUSP5 phosphatase domain pNPP assay, IC50 from initial velocities
Format: biochemical
Details: IC50 against DUSP5 PD activity, with 1 mM DTT, 30 min incubation, mean ± SD
pIC50: −log10 of the molar value.
READOUT_KIND: pIC50

MOLECULE | READOUT_KIND | RESULT_VALUE
O=C1OC2(c3ccccc31)c1cc(Br)c(O)c(Br)c1Oc1c2cc(Br)c(O)c1Br [Eosin Y, 2’,4’,5’,7’-tetrabromofluorescein] | pIC50 | < 4.00
O=C1OC2(c3ccc(O)cc3Oc3cc(O)ccc32)c2ccccc21 [Fluorescein] | pIC50 | < 3.52
